Molecular target: IKZF2 (Helios) (Homo sapiens, UniProt Q96SW2+Q9UKS7)
Construct: CRISPR/Cas-mediated insertion of the HiBiT peptide tag (Promega™) to the N-terminus of the IKZF2 gene locus; endogenous in cells; host or cells: MOLT4 cells, CRISPR/Cas knock-in of HiBiT at the endogenous IKZF2 locus
Sequence (Q9UKS7 whole entry): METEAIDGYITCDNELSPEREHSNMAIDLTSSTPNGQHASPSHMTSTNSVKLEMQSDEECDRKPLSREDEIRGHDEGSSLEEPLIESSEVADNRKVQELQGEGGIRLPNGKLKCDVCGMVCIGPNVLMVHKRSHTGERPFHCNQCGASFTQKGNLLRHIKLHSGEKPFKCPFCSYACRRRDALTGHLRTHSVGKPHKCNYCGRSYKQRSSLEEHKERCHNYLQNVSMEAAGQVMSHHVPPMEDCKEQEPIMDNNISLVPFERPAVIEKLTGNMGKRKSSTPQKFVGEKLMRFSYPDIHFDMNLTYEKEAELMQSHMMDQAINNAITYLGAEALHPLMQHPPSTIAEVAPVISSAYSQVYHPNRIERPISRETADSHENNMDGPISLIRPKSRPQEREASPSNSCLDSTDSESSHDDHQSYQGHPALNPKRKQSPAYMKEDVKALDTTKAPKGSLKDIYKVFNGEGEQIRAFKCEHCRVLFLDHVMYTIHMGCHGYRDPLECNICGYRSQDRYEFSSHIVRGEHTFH
Sequence (Q96SW2 whole entry): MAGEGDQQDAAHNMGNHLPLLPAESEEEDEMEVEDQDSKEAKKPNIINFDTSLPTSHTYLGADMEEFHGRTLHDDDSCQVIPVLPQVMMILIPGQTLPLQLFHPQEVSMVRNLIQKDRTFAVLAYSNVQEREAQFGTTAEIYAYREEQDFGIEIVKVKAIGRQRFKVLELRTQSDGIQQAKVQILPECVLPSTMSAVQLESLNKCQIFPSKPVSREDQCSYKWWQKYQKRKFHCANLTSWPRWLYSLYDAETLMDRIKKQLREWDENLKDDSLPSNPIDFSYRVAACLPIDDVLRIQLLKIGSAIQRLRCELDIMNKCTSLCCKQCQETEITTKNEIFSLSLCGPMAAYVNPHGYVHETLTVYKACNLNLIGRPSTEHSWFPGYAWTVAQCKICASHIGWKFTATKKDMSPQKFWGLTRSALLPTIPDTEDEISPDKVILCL
Sequence (Q16531 whole entry partner): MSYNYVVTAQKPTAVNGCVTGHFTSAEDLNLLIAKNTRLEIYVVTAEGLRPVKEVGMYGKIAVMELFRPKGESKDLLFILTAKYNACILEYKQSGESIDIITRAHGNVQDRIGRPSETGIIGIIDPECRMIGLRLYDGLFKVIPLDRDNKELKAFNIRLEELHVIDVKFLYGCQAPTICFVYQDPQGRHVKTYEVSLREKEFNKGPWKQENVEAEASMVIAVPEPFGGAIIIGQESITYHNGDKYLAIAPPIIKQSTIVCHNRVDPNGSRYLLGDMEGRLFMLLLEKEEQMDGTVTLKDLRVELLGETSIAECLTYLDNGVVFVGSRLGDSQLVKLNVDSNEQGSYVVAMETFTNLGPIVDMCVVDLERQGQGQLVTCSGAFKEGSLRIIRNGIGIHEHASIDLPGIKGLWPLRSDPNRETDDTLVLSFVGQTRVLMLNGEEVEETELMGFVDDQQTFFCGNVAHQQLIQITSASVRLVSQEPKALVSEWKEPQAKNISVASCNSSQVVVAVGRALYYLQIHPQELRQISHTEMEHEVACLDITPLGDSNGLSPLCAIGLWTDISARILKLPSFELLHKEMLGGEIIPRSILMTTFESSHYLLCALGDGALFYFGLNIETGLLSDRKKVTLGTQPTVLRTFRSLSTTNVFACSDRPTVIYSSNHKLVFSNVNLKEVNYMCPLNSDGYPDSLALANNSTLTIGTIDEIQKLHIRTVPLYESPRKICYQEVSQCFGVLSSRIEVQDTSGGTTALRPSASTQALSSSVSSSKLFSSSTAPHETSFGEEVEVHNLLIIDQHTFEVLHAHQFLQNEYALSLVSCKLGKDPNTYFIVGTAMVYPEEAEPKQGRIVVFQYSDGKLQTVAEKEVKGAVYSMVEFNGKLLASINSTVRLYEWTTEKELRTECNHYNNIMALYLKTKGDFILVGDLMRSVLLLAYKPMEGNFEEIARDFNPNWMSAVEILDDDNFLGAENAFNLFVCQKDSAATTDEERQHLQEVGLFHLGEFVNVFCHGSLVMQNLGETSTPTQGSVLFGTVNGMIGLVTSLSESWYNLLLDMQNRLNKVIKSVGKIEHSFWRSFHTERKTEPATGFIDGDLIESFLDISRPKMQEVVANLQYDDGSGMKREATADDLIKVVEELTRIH
Assay: HiBiT protocol: HiBiT-Helios degradation in MOLT4 cells (Example 63)
Type: cell-based
Details: after 6 hours of treatment, 13-point 10 μM to 0.00026 μM
Source text: The HiBiT protein tagging system was applied to MOLT4 cells via a CRISPR/Cas-mediated insertion of the HiBiT peptide tag (Promega™) to the N-terminus of the IKZF2 gene locus (Neon™ Transfection System). […] At the indicated timepoints, the Nano-Glo® HiBiT Lytic Detection system (Promega™) was utilized for detecting bioluminescence of the HiBiT tag in treated cells: the abundance of the tag is proportionate to the level of luminescence. […]
Below: a set of entries, each annotated with reported DC50.

compound	reportedValue
O=C1CCC(N2Cc3cc(C4CCN(Cc5ccc6c(c5)C(=O)N(c5ccccn5)CCO6)CC4)ccc3C2=O)C(=O)N1 (stereo not drawn)	5 to 25 nM
O=C1CCC(N2Cc3cc(C4CCN(Cc5ccc6ncn(-c7ncccc7F)c(=O)c6c5)CC4)ccc3C2=O)C(=O)N1 (stereo not drawn)	< 5 nM
Cn1cccc(Nc2cccc(CN3CCC(c4ccc5c(c4)CN(C4CCC(=O)NC4=O)C5=O)CC3)c2)c1=O (stereo not drawn)	5 to 25 nM

DC50 measured on O=C1CCC(N2Cc3cc(C4CCN(Cc5ccc6ncn(-c7ccns7)c(=O)c6c5)CC4)ccc3C2=O)C(=O)N1 (stereo not drawn) = 5 to 25 nM

DC50 measured on O=C1CCC(N2Cc3cc(C4CCN(Cc5ccc6ncn(-c7ccccn7)c(=O)c6c5)CC4)ccc3C2=O)C(=O)N1 (stereo not drawn) = 5 to 25 nM

DC50 measured on O=C1CCC(N2Cc3cc(C4CCN(Cc5cc6n(n5)CCN(c5ccccc5)C6=O)CC4)ccc3C2=O)C(=O)N1 (stereo not drawn) = 5 to 25 nM

DC50 measured on O=C1CCC(N2Cc3cc(C4CCN(Cc5ccc6c(c5)C(=O)N(c5ccncn5)CCO6)CC4)ccc3C2=O)C(=O)N1 (stereo not drawn) = 5 to 25 nM

DC50 measured on O=C1CCC(N2Cc3cc(C4CCN(Cc5ccc6c(c5)N(c5ccccc5)C(=O)C6)CC4)ccc3C2=O)C(=O)N1 (stereo not drawn) = < 5 nM

DC50 measured on O=C1CCC(N2Cc3cc(C4CCN(Cc5ccc6c(c5)C(=O)N(c5ccccc5F)CCO6)CC4)ccc3C2=O)C(=O)N1 (stereo not drawn) = < 5 nM

DC50 measured on O=C1CCC(N2Cc3cc(C4CCN(Cc5ccc6cc(-c7ccccc7)nn6c5)CC4)ccc3C2=O)C(=O)N1 (stereo not drawn) = 5 to 25 nM

DC50 measured on O=C1CCC(N2Cc3cc(C4CCN(Cc5ccc6c(c5)C(=O)N(c5ccccc5)CCO6)CC4)ccc3C2=O)C(=O)N1 (stereo not drawn) = < 5 nM

DC50 measured on O=C1CCC(N2Cc3cc(C4CCN(Cc5ccc6ncn(-c7ccccc7)c(=O)c6c5)CC4)ccc3C2=O)C(=O)N1 (stereo not drawn) = 5 to 25 nM

----------
Biological target: IKZF2 (Helios) (Homo sapiens, UniProt Q96SW2+Q9UKS7)
Construct: CRISPR/Cas-mediated insertion of the HiBiT peptide tag (Promega™) to the N-terminus of the IKZF2 gene locus; endogenous in cells; host or cells: MOLT4 cells, CRISPR/Cas knock-in of HiBiT at the endogenous IKZF2 locus
Test: HiBiT protocol: HiBiT-Helios degradation in MOLT4 cells (Example 63)
Format: cell-based
Details: after 6 hours of treatment, 13-point 10 μM to 0.00026 μM
quantityKind: DC50

Please review the following examples before continuing.
molecule	testedSystem	DC50
O=C1CCC(N2Cc3cc(C4CCN(Cc5ccc6cnn(-c7ccccn7)c(=O)c6c5)CC4)ccc3C2=O)C(=O)N1 (stereo not shown)	IKZF2 (Helios) (Homo sapiens, UniProt Q96SW2+Q9UKS7)	5 to 25 nM
O=C1CCC(N2Cc3cc(C4CCN(Cc5ccc6ccn(-c7ccccn7)c(=O)c6c5)CC4)ccc3C2=O)C(=O)N1 (stereo not shown)	IKZF2 (Helios) (Homo sapiens, UniProt Q96SW2+Q9UKS7)	< 5 nM
O=C1CCC(N2Cc3cc(C4CCN(Cc5ccc6c(c5)C(=O)N(c5ncccn5)CCO6)CC4)ccc3C2=O)C(=O)N1 (stereo not shown)	IKZF2 (Helios) (Homo sapiens, UniProt Q96SW2+Q9UKS7)	5 to 25 nM
O=C1CCC(N2Cc3cc(C4CCN(Cc5ccc6c(c5)C(=O)N(c5ccns5)CCO6)CC4)ccc3C2=O)C(=O)N1 (stereo not shown)	IKZF2 (Helios) (Homo sapiens, UniProt Q96SW2+Q9UKS7)	< 5 nM
O=C1CCC(N2Cc3cc(C4CCN(Cc5ccc6ncn(-c7ccccc7F)c(=O)c6c5)CC4)ccc3C2=O)C(=O)N1 (stereo not shown)	IKZF2 (Helios) (Homo sapiens, UniProt Q96SW2+Q9UKS7)	5 to 25 nM
O=C1CCC(N2Cc3cc(C4CCN(Cc5ccc6cn(-c7ccccc7)nc6c5)CC4)ccc3C2=O)C(=O)N1 (stereo not shown)	IKZF2 (Helios) (Homo sapiens, UniProt Q96SW2+Q9UKS7)	< 5 nM

DC50 measured on O=C1CCC(N2Cc3cc(C4CCN(Cc5ccc6ccc(-c7ccccc7)nc6c5)CC4)ccc3C2=O)C(=O)N1 (stereo not shown) = 25 to 100 nM
